# merged literature set: pIC50 with Thyroid hormone receptor beta (Homo sapiens, UniProt P10828)
# Sequence (P10828 whole entry): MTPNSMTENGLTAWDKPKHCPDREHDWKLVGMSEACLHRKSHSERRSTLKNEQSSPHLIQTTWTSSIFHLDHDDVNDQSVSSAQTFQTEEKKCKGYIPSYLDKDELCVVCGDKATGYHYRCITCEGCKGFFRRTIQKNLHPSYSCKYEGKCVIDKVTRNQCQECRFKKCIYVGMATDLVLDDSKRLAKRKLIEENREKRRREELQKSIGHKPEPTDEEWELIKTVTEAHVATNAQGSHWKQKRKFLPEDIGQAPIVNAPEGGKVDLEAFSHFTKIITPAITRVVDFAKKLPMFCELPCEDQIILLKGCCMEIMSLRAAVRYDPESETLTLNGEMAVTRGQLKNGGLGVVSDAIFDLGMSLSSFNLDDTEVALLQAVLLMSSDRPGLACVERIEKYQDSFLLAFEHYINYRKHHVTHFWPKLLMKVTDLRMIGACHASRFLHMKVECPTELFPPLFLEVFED
pIC50: −log10 of the molar value.
Classify as follows. Reported pIC50 greater than or equal to 7: true. Reported pIC50 below: false.

{"MOLECULE": "O=C(O)Cc1cc(Cl)c(Oc2ccc(O)cc2)c(Cl)c1", "ASSIGNED CATEGORY": "false"}
{"MOLECULE": "CC(C)c1cc(Oc2c(Br)cc(CC(=O)N[C@@H](C(=O)O)C(C)C)cc2Br)ccc1O", "ASSIGNED CATEGORY": "true"}
{"MOLECULE": "O=C(O)Cc1cc(Br)c(Oc2ccc(O)c(Cc3ccc(C(F)(F)F)cc3)c2)c(Br)c1", "ASSIGNED CATEGORY": "true"}
{"MOLECULE": "CC(C)c1cc(Oc2c(Br)cc3c(c2Br)CC(C(=O)O)N3)ccc1O (centres undefined)", "ASSIGNED CATEGORY": "true"}
{"MOLECULE": "O=C(O)CCc1cc(Br)c(OC2CCCCC2)c(Br)c1", "ASSIGNED CATEGORY": "false"}
{"MOLECULE": "O=c1cnn(-c2cc(Cl)c(Oc3ccc(O)c(S(=O)(=O)N4CCc5ccccc54)c3)c(Cl)c2)c(=O)[nH]1", "ASSIGNED CATEGORY": "true"}
{"MOLECULE": "O=C(O)C(=O)Nc1cc(Cl)c(-c2cccc3c(Br)c(O)ccc23)c(Cl)c1", "ASSIGNED CATEGORY": "true"}
{"MOLECULE": "Cc1oc2ccccc2c1C(=O)c1cc(I)c(OCC(=O)O)c(I)c1", "ASSIGNED CATEGORY": "false"}
{"MOLECULE": "O=C(O)Cc1cc(Br)c(Oc2ccc(O)c(C(=O)NCC(c3ccccc3)c3ccccc3)c2)c(Br)c1", "ASSIGNED CATEGORY": "true"}
{"MOLECULE": "CC(C)c1cc(Oc2c(Br)cc(CC(=O)N[C@@H](C)C(=O)O)cc2Br)ccc1O", "ASSIGNED CATEGORY": "true"}
{"MOLECULE": "CC(C)c1cc(Oc2c(Br)cc(CC(=O)N[C@@H](CC(=O)O)C(=O)O)cc2Br)ccc1O", "ASSIGNED CATEGORY": "false"}
{"MOLECULE": "CCn1c(CCCc2ccc(-c3ccc(NS(=O)(=O)c4ccccc4)cn3)cc2)nn(Cc2ccc(C(C)(C)C)cc2)c1=O", "ASSIGNED CATEGORY": "false"}
{"MOLECULE": "O=c1cnn(-c2cc(Cl)c(Oc3ccc(O)c(S(=O)(=O)Nc4ccccc4)c3)c(Cl)c2)c(=O)[nH]1", "ASSIGNED CATEGORY": "true"}
{"MOLECULE": "CCn1c(CCCc2ccc(-c3ccc(NS(=O)(=O)c4ccc(-c5ccc(OC)cc5)cc4)cc3)cc2)nn(Cc2ccc(C(C)(C)C)cc2)c1=O", "ASSIGNED CATEGORY": "false"}
{"MOLECULE": "COc1cccc(CCNC(=O)c2cc(Oc3c(Br)cc(CC(=O)O)cc3Br)ccc2O)c1", "ASSIGNED CATEGORY": "true"}
{"MOLECULE": "O=C(O)Cc1cc(Cl)c(Oc2ccc(O)c(C(=O)NCc3ccccc3)c2)c(Cl)c1", "ASSIGNED CATEGORY": "true"}
{"MOLECULE": "CCCC(CCC)C(=O)Nc1ccc(Oc2c(Cl)cc(CC(=O)O)cc2Cl)cc1Br", "ASSIGNED CATEGORY": "true"}
{"MOLECULE": "O=c1cnn(-c2cc(Cl)c(Oc3ccc(O)c(S(=O)(=O)N4CCCCC4)c3)c(Cl)c2)c(=O)[nH]1", "ASSIGNED CATEGORY": "true"}

----------
# merged literature set: IC50 with Thyroid hormone receptor beta (Homo sapiens, UniProt P10828)

{"COMPOUND": "Cc1cc(-n2ncc(=O)[nH]c2=O)cc(Cl)c1Oc1ccc(O)c(S(=O)(=O)N2CCOCC2)c1", "TARGET DESC": "Thyroid hormone receptor beta (Homo sapiens, UniProt P10828)", "IC50 (nM)": 75.9}
{"COMPOUND": "O=C(O)Cc1cc(Cl)c(Oc2ccc(O)c(-c3ccccc3C(F)(F)F)c2)c(Cl)c1", "TARGET DESC": "Thyroid hormone receptor beta (Homo sapiens, UniProt P10828)", "IC50 (nM)": 3.24}
{"COMPOUND": "O=C(O)Cc1cc(Cl)c(-c2cccc3c(Br)c(O)ccc23)c(Cl)c1", "TARGET DESC": "Thyroid hormone receptor beta (Homo sapiens, UniProt P10828)", "IC50 (nM)": 13}
{"COMPOUND": "O=C(O)CCC(=O)Nc1cc(Cl)c(-c2cccc3c(Br)c(O)ccc23)c(Cl)c1", "TARGET DESC": "Thyroid hormone receptor beta (Homo sapiens, UniProt P10828)", "IC50 (nM)": 22}
{"COMPOUND": "O=C(O)CCNc1cc(Cl)c(-c2cccc3c(Br)c(O)ccc23)c(Cl)c1", "TARGET DESC": "Thyroid hormone receptor beta (Homo sapiens, UniProt P10828)", "IC50 (nM)": 1.8}
{"COMPOUND": "O=C(O)CNc1cc(Cl)c(-c2cccc3c(Br)c(O)ccc23)c(Cl)c1", "TARGET DESC": "Thyroid hormone receptor beta (Homo sapiens, UniProt P10828)", "IC50 (nM)": 1.8}
{"COMPOUND": "O=C(O)Cc1cc(Br)c(Oc2ccc(O)c(C(=O)Nc3ccccc3)c2)c(Br)c1", "TARGET DESC": "Thyroid hormone receptor beta (Homo sapiens, UniProt P10828)", "IC50 (nM)": 35.5}
{"COMPOUND": "Cc1c(O)ccc2c(-c3c(Cl)cc(NC(=O)O)cc3Cl)cccc12", "TARGET DESC": "Thyroid hormone receptor beta (Homo sapiens, UniProt P10828)", "IC50 (nM)": 7.2}
{"COMPOUND": "CC(C)c1cc(Oc2c(Br)cc(CC(=O)N[C@H](C)C(=O)O)cc2Br)ccc1O", "TARGET DESC": "Thyroid hormone receptor beta (Homo sapiens, UniProt P10828)", "IC50 (nM)": 5.9}
{"COMPOUND": "CC(C)c1cc(Oc2c(Br)cc(CC(=O)N[C@H](CC(=O)O)C(=O)O)cc2Br)ccc1O", "TARGET DESC": "Thyroid hormone receptor beta (Homo sapiens, UniProt P10828)", "IC50 (nM)": 26}
{"COMPOUND": "O=C(O)Cc1cc(Cl)c(-c2cccc3cc(O)ccc23)c(Cl)c1", "TARGET DESC": "Thyroid hormone receptor beta (Homo sapiens, UniProt P10828)", "IC50 (nM)": 545}
{"COMPOUND": "O=c1cnn(-c2cc(Cl)c(Oc3ccc(O)c(S(=O)(=O)N4C5CCC4CC4(C5)OCCO4)c3)c(Cl)c2)c(=O)[nH]1", "TARGET DESC": "Thyroid hormone receptor beta (Homo sapiens, UniProt P10828)", "IC50 (nM)": 0.871}
{"COMPOUND": "CCC(C)C(=O)Nc1ccc(Oc2c(Cl)cc(CC(=O)O)cc2Cl)cc1Br (stereo not drawn)", "TARGET DESC": "Thyroid hormone receptor beta (Homo sapiens, UniProt P10828)", "IC50 (nM)": 4.3}
{"COMPOUND": "O=C(O)Cc1cc(Cl)c(Oc2ccc(O)c(Br)c2)c(Cl)c1", "TARGET DESC": "Thyroid hormone receptor beta (Homo sapiens, UniProt P10828)", "IC50 (nM)": 9}
{"COMPOUND": "Cc1cc(Oc2c(Br)cc(CC(=O)N[C@H](C(=O)O)C(C)C)cc2Br)cc(C(C)C)c1O", "TARGET DESC": "Thyroid hormone receptor beta (Homo sapiens, UniProt P10828)", "IC50 (nM)": 2600}
{"COMPOUND": "COc1ccc(CCNC(=O)c2cc(Oc3c(Br)cc(CC(=O)O)cc3Br)ccc2O)cc1", "TARGET DESC": "Thyroid hormone receptor beta (Homo sapiens, UniProt P10828)", "IC50 (nM)": 4.79}
{"COMPOUND": "CCCC(C)C(=O)Nc1ccc(Oc2c(Cl)cc(CC(=O)O)cc2Cl)cc1Br (stereo not drawn)", "TARGET DESC": "Thyroid hormone receptor beta (Homo sapiens, UniProt P10828)", "IC50 (nM)": 47}
{"COMPOUND": "Cc1cc(OCC(=O)O)cc(C)c1Cc1cc(C#Cc2ccc([N+](=O)[O-])cc2)c(O)c(C(C)C)c1", "TARGET DESC": "Thyroid hormone receptor beta (Homo sapiens, UniProt P10828)", "IC50 (nM)": 370}
